Test system: HDACs (HDAC1, HDAC2, HDAC6)
assay_comment: Chemoproteomic competition pulldown assay (HDAC panel)
Type: binding
condition_label: peer review response; read-out: EC50 in chemoproteomic competition assays
Procedure: To identify proteins directly bound by lipoic acid, we employed a chemoproteomic competition assay. Briefly, (R/S)-LA was immobilized on sepharose beads via an amidation reaction to form an affinity matrix (abbreviated as iL; Fig. 1a). […] In a competition assay, free LA or LM were incubated with lysate at different concentrations before pulling down and quantifying target proteins. […]
pEC50: −log10 of the molar value.
metric_name: pEC50

## Task Would you kindly share the measured pEC50 for O=C(O)CCCCC1CCSS1 (racemic) [(R/S)-LA, (R/S)-lipoic acid] ?
## Result 4.52 to 5.30
